# Tested on: pigweed
# Assay explanation: Test B pre/postemergence pigweed
# Format: in vivo, Amaranthus retroflexus
# Measurement parameters: Preemergence, Rate 250 g/ha; scale of 0 to 10 where 0 is no effect and 10 is complete control
# Procedure: […] At the same time, these crop and weed species were also treated with postemergence applications of test chemicals formulated in the same manner. […] Treated plants and controls were maintained in a greenhouse for twelve to sixteen days, after which all species were compared to controls and visually evaluated. […]
Would you mind telling me the reported Redroot pigweed plant response rating of each entry?

Reference set, count: 2
                                   compound  val
0  CON=C(Cn1c(=O)on(C(=O)N(c2ccc(F)cc2)C(C)C)c1=O)C(F)(F)F [Compound 227]   10
1  Cc1ccccc1-n1c(=O)on(C(=O)N(c2ccc3c(c2)CCC3)C(C)C)c1=O [Compound 278]    0

Please supply Redroot pigweed plant response rating for each of the following items, keeping them in order.
1. CC(C)N(C(=O)n1oc(=O)n(-c2cccnc2)c1=O)c1ccccc1 [Compound 235]
2. CCOc1nc(C(F)(F)F)c(Cn2c(=O)on(C(=O)N(c3ccccc3)C(C)C)c2=O)s1 [Compound 379]

Response:
[0, 0]

====

Would you mind telling me the reported Crabgrass plant response rating of each entry?
# Test system: crabgrass
# Assay explanation: Test B pre/postemergence crabgrass
# Type: in vivo, Digitaria sanguinalis
# Measurement parameters: Postemergence, Rate 250 g/ha; scale of 0 to 10, 0 is no effect, 10 is complete control

>>> df
                                   compound  val
0  COC(=O)C(C)n1c(=O)on(C(=O)N(c2ccc(Cl)cc2)C(C)C)c1=O (stereo not shown)    0
1  COC(=O)C(C)n1c(=O)on(C(=O)N(c2ccc(F)cc2)C(C)C)c1=O (stereo not shown)    4

Please supply Crabgrass plant response rating for each of the following items, keeping them in order.
1. CC(C)N(C(=O)n1oc(=O)n(CCF)c1=O)c1ccc(Cl)cc1
2. CC(C)N(C(=O)n1oc(=O)n(CC(=O)C2CC2)c1=O)c1ccc(Cl)cc1

Response:
[9, 2]

====

Would you mind telling me the reported Plant response rating, Rape of each entry?
# System: rape
# Assay explanation: Test B pre/postemergence rape
# Assay type: in vivo, Brassica napus
# Measurement parameters: Rate 250 g/ha, Postemergence; scale of 0 to 10 where 0 is no effect and 10 is complete control
Answers are plain numbers.

Reference set, count: 3
>>> print(df.to_string())
                                   compound  val
0  CC(C)N(C(=O)n1oc(=O)n(CCCCF)c1=O)c1ccc(Cl)cc1    7
1  Cc1cccc(C)c1-n1c(=O)on(C(=O)N(C(C)C)C2C=CCCC2)c1=O (stereo not drawn)    0
2  CC(C)N(C(=O)n1oc(=O)n(CCC(F)(F)F)c1=O)c1ccc(F)cc1F    3

Please supply Plant response rating, Rape for each of the following items, keeping them in order.
1. CSCCn1c(=O)on(C(=O)N(c2ccc(F)cc2)C(C)C)c1=O
2. CC(C)N(C(=O)n1oc(=O)n(-c2ccsc2)c1=O)c1ccc(F)cc1

Response:
0
0

Request: # input compound: "CC(C)N(C(=O)n1oc(=O)n(CCC(F)=C(F)F)c1=O)c1ccccc1" ; wanted: its Plant response rating, Rape
Response: 9
